- Method notes: Average peak plasma drug concentration after iv dose of 0.3 mg/kg in ferrets.
- Condition summary: ferret, plasma
Below is a list of entries, each paired with its recorded Cmax value.

Use the examples below as a reference point.
CCCC[C@H](N[C@@H](Cc1ccccc1)C(=O)N1CCC(OCOC)CC1)C(=O)N[C@@H](CC1CCCCC1)[C@@H](O)C[C@H](NC(=O)OCCN(C)C)C(C)C
930 ng/mL
CCCC[C@H](O[C@@H](Cc1ccccc1)C(=O)N1CCC(OCOC)CC1)C(=O)N[C@@H](CC1CCCCC1)[C@@H](O)C[C@H](C(=O)NCCN1CCOCC1)C(C)C
1320 ng/mL

From here, focus on the item given below.
Incoming: Name the recorded Cmax of the compound listed here: `CCCC[C@H](O[C@@H](Cc1ccccc1)C(=O)N1CCC(OCOC)CC1)C(=O)N[C@@H](CC1CCCCC1)[C@@H](O)C[C@H](NC(=O)OCCN1CCOCC1)C(C)C`
Outgoing: 920 ng/mL
